- Test System: 15-PGDH in A549 cells (Homo sapiens)
- Construct: endogenous in cells
- Sequence (P15428 whole entry): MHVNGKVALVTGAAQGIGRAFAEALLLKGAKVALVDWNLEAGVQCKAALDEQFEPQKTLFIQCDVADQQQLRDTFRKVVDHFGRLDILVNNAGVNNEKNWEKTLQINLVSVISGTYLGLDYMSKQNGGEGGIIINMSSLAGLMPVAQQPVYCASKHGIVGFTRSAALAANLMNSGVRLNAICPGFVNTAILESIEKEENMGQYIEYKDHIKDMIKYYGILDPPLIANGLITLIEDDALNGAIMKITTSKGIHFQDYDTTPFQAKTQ
- Assay Remarks: A549 cellular 15-PGDH assay (PGE2 accumulation, HTRF)
- Run Parameters: interleukin-stimulated, inhibitor 24 hrs, PGE2 by competitive HTRF, read-out: A549 Cell Assay IC50
Reported Metric: IC50 (nM)

INSERT INTO measurements (molecule, test_system, reported_metric, units_symbol, numeric_value) VALUES
  ('Cn1cc2cc(-c3ccc4nc([C@]5(O)C[C@@](C)(C#N)C5)sc4n3)cnc2n1 (single isomer, unassigned) [Compound C91C]', '15-PGDH in A549 cells (Homo sapiens)', 'IC50', 'nM', 2.22),
  ('Cn1cc2cc(-c3ccc4cc([C@@H](O)C5CC(F)(F)C5)ccc4n3)cnc2n1 (single isomer, unassigned)', '15-PGDH in A549 cells (Homo sapiens)', 'IC50', 'nM', 168),
  ('Cn1cc2cc(-c3ccc4cc(C(O)[C@H]5CCOC5)sc4n3)cnc2n1 (single isomer, unassigned) [B19(RS)S]', '15-PGDH in A549 cells (Homo sapiens)', 'IC50', 'nM', 1.03),
  ('Cn1cc2cc(-c3ccc4nc([C@]5(O)C[C@]6(CC6(F)F)C5)sc4n3)cnc2n1 (single isomer, unassigned) [Compound C115C]', '15-PGDH in A549 cells (Homo sapiens)', 'IC50', 'nM', 0.978);
